Molecular target: HLA-B*08:01
Test: IEDB peptide-MHC binding, purified MHC/direct/fluorescence; filed as Kd, often an IC50 or EC50 that approximates it; bounds were set here for any values at or beyond the usual limits of such assays
Conditions: source organism: Escherichia coli
recorded_endpoint: Kd

Problem: I'd like to know its Kd. The sequence in question is TVANNPDDK
Result: ≥ 20 µM

---

Target: HLA-B*07:02
Experiment: IEDB peptide-MHC binding, purified MHC/direct/fluorescence; filed as Kd, often an IC50 or EC50 that approximates it; bounds were set here for any values at or beyond the usual limits of such assays
Details: source organism: Vibrio parahaemolyticus
recorded_endpoint: pKd
Give bare numbers, as −log10 of the molar value.

Problem: Requested field: pKd. Item: EPATQTFDM
Result: 6.92

These entries and their values trace back to the Immune Epitope Database (IEDB).
